Target: TPβ (Homo sapiens, UniProt P21731)
Construct: expressed in transfected cells
Assay: U46619-induced [Ca2+]i mobilization in HEK.TPβ cells
Assay type: cell-based
Settings: antagonist 10 μM; 1 μM U46619; % of agonist-induced response in vehicle-treated cells; read-out: Percentage of Control, TPβ, 10 μM
Each item that follows carries a reported remaining activity at 10 µM.
Observable: remaining activity at 10 µM

Molecule: CCn1cc(-c2ccc(Oc3cccc(-c4ccc(OC)cc4)c3)c(S(=O)(=O)NC(=O)NC(C)(C)C)c2)cn1
Assay value: 57.4%
//
Molecule: COc1ccc(-c2cccc(Oc3ccc(C(=O)NCc4ccccn4)cc3S(=O)(=O)NC(=O)NC(C)(C)C)c2)cc1
Assay value: 20.7%
//
Molecule: COc1ccc(-c2cccc(Oc3ccc(C(=O)N4CCOCC4)cc3S(=O)(=O)NC(=O)NC(C)(C)C)c2)cc1
Assay value: 50.1%
//
Molecule: COc1ccc(-c2cccc(Oc3ccc(C(F)(F)F)cc3S(=O)(=O)NC(=O)NC(C)(C)C)c2)cc1
Assay value: 14.8%
//
Molecule: COc1ccc(-c2cccc(Oc3ccc(C(N)=O)cc3S(=O)(=O)NC(=O)NC(C)(C)C)c2)cc1
Assay value: 36.2%
//
Molecule: COc1ccc(-c2cccc(Oc3ccc(C#N)cc3S(=O)(=O)NC(=O)NC(C)(C)C)c2)cc1
Assay value: 10.2%
//
Molecule: CCNC(=O)c1ccc(Oc2cccc(-c3ccc(OC)cc3)c2)c(S(=O)(=O)NC(=O)NC(C)(C)C)c1
Assay value: 62.3%
//
Molecule: COc1ccc(-c2cccc(Oc3ccc(C(=O)O)cc3S(=O)(=O)NC(=O)NC(C)(C)C)c2)cc1
Assay value: 72%
//
Molecule: COc1ccc(-c2cccc(Oc3ccc(Cl)cc3S(=O)(=O)NC(=O)NC(C)(C)C)c2)cc1
Assay value: 9.31%
//
Molecule: COc1ccc(-c2cccc(Oc3ccc(C(C)=O)cc3S(=O)(=O)NC(=O)NC(C)(C)C)c2)cc1
Assay value: 12.2%
//
Molecule: COc1ccc(-c2cccc(Oc3ccc(-c4ccoc4)cc3S(=O)(=O)NC(=O)NC(C)(C)C)c2)cc1
Assay value: 18.5%
//
Molecule: COc1ccc(-c2cccc(Oc3ccncc3S(=O)(=O)NC(=O)NC(C)(C)C)c2)cc1
Assay value: 27.7%

----------
Target: TPα (Homo sapiens)
Construct: expressed in transfected cells
Sequence (P21731 1-343): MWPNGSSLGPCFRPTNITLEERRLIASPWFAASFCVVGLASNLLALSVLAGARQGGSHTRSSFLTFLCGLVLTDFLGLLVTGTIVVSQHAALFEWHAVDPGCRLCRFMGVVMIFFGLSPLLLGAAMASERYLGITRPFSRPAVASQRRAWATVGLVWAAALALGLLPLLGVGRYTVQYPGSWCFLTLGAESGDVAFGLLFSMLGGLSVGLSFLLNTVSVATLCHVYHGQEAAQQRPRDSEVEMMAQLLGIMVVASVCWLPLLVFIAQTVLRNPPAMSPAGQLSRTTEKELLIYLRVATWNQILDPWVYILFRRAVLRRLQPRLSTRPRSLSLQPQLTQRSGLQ
Test: U46619-induced [Ca2+]i mobilization in HEK.TPα cells
Assay type: cell-based
Conditions: antagonist 10 μM; 1 μM U46619; % of agonist-induced response in vehicle-treated cells; read-out: Percentage of Control, TPα, 10 μM
Observable: remaining activity at 10 µM (%)

Molecule: COCCNC(=O)c1ccc(Oc2cccc(-c3ccc(OC)cc3)c2)c(S(=O)(=O)NC(=O)NC(C)(C)C)c1
Measure unit: %
Assay value: 89.1

Molecule: COc1ccc(-c2cccc(Oc3ccc(C(=O)N4CCOCC4)cc3S(=O)(=O)NC(=O)NC(C)(C)C)c2)cc1
Measure unit: %
Assay value: 87.6

Molecule: COc1ccc(-c2cccc(Oc3ccc(F)cc3S(=O)(=O)NC(=O)NC(C)(C)C)c2)cc1
Measure unit: %
Assay value: 49.9
